- procedureDetails: inhibitors of induced NF-kB luciferase reporter, primary screen, TCR NF-kB activation inhibitor project, cell-based, luminescence, uHTS (AID 435003)
- setupConditions: Jurkat, PMA/ionomycin-induced NF-kB luciferase reporter, at 4 µM
Out of some 330,000 compounds screened, about 1,700 (0.52%) were called active. No stated cut-off is given here; in the data, active means inhibition above about 50%; inactive means the rest. The sample as a whole holds a higher share of actives than the screen did.
Classes used: 1.0 (active), 0.0 (inactive)

{"testSmiles": "C=CCn1c(SCC(=O)NCCCO)nc2sc3c(c2c1=O)CCC3", "classLabel": 0.0}
{"testSmiles": "COc1ccccc1N1CCN(C(=O)c2cc(=O)c3cc(C)cc(C)c3o2)CC1", "classLabel": 1.0}
{"testSmiles": "Cc1ccc(S(=O)(=O)N2CCCCC2)cc1C(=O)N(C)CC(=O)Nc1cccc(F)c1", "classLabel": 0.0}
{"testSmiles": "Cc1cc(C)n(-c2ccc(C(=O)O)cc2[N+](=O)[O-])n1", "classLabel": 0.0}
{"testSmiles": "CCOCCCn1c(NN)nc2ccccc2c1=O", "classLabel": 0.0}

Where do the numbers come from? From PubChem BioAssay AID435003.
